Source: patent US6569456B2

# METHOD_SUMMARY: separate study of diltiazem half-life
# RECORDED_CONDITIONS: in vivo
MEASUREMENT_TYPE: half-life

Suppose we examine the molecule COc1ccc([C@@H]2Sc3ccccc3N(CCN(C)C)C(=O)[C@@H]2OC(C)=O)cc1 ; what half-life value has been reported?
~8.5 h
